Where do these numbers come from? They come from a melting point compilation (Tetko et al.).

reported.metric: melting point (°C)

O=C(O)C(=Cc1ccccc1)C(=Cc1ccccc1)C(=O)O : 223

A: CCCOC(=O)C1=C(C)NC(C)=C(C(=O)OCCC)C1c1ccccc1
B: CC1=NN(CN2CCCCC2)C(=O)/C1=N\Nc1cccnc1
C: CC(=O)c1ccc(-c2ccccc2[N+](=O)[O-])o1
Challenge: Given 3 compounds, produce a descending ranking by melting point. Order the labels as requested and list them.
Response given: B, A, C
(B: 177 °C, A: 119 °C, C: 79 °C)

---

reported.metric: melting point (°C)

S=c1oc2ccccc2n1CSCCCS : 188

a: CC(=O)c1ccc[nH]1
b: Cn1cc(CCC(=O)O)c(=O)n(C)c1=O
c: Cc1cc(S(=O)(=O)Cl)c(C)cc1Cl
d: Nc1nnc(-c2ccccc2)c(Nc2ccc(I)cc2)n1
Challenge: Arrange items by their melting point values in increasing order. List the labels according to the requested ordering.
Response given: c, a, b, d

A: COC(=O)c1ccccc1C(=O)O
B: Cc1cc(=O)n(-c2ccccc2)[nH]1
C: Fc1ccc2[nH]ccc2c1
Challenge: Task for the reader: rank each entry by its melting point, from the minimum upward. Reply with the item labels sorted in the order that was asked for.
Response given: C, A, B
(C: 45 °C, A: 83 °C, B: 128 °C)

P: COc1cc(OCc2ccccc2)ccc1C=O
Q: O=C(N[C@@H](Cc1ccccc1Br)C(=O)O)OCC1c2ccccc2-c2ccccc21
Challenge: Looking at P and Q , which one comes out lower in melting point terms? // return label of chosen record
Response given: P
(P: 96 °C, Q: 168 °C)
